The measurements presented in this section are drawn from patent US10808003B2.

- assay overview: Critical micelle concentration by fluorescent staining with diphenylhexatriene (DPH)
- Format: physicochemical
- settings: aqueous solution
reported metric: CMC (wt %)

Reference set, count: 4
| compound | reported metric | endpoint value |
| --- | --- | --- |
| CCCCCCCCCCCCCOCC(CO[C@@H]1OC(CO)[C@@H](O)C(O)C1O)(CO[C@@H]1OC(CO)[C@@H](O)C(O)C1O)CSCC(COCCCCCCCCCCCCC)(CO[C@@H]1OC(CO)[C@@H](O)C(O)C1O)CO[C@@H]1OC(CO)[C@@H](O)C(O)C1O (stereo partly shown) | CMC (wt %) | ~0.0008 wt % |
| CCCCCCCCCCCCCC(CCCC(CCCCCCCCCCCCC)(CO[C@@H]1OC(CO)[C@@H](O)C(O)C1O)CO[C@@H]1OC(CO)[C@@H](O)C(O)C1O)(CO[C@@H]1OC(CO)[C@@H](O)C(O)C1O)CO[C@@H]1OC(CO)[C@@H](O)C(O)C1O (stereo partly shown) | CMC (wt %) | ~0.0007 wt % |
| CCCCCCCCCCCCC(CCCCCCCCCCCC)COCC(CO[C@@H]1OC(CO)[C@@H](O[C@H]2OC(CO)[C@@H](O)C(O)C2O)C(O)C1O)(CO[C@@H]1OC(CO)[C@@H](O[C@H]2OC(CO)[C@@H](O)C(O)C2O)C(O)C1O)CSCC(COCC(CCCCCCCCCCCC)CCCCCCCCCCCC)(CO[C@@H]1OC(CO)[C@@H](O[C@H]2OC(CO)[C@@H](O)C(O)C2O)C(O)C1O)CO[C@@H]1OC(CO)[C@@H](O[C@H]2OC(CO)[C@@H](O)C(O)C2O)C(O)C1O (stereo partly shown) | CMC (wt %) | ~0.00034 wt % |
| CCCCCCCCCCCCOCC(CO[C@@H]1OC(CO)[C@@H](O)C(O)C1O)(CO[C@@H]1OC(CO)[C@@H](O)C(O)C1O)CSCC(COCCCCCCCCCCCC)(CO[C@@H]1OC(CO)[C@@H](O)C(O)C1O)CO[C@@H]1OC(CO)[C@@H](O)C(O)C1O (stereo partly shown) | CMC (wt %) | ~0.0019 wt % |

State recorded CMC (wt %) for all listed compounds.
1. CC(C)CCC[C@@H](C)C1CCC2C3CCC4CC(OCC(CO[C@@H]5OC(CO)[C@@H](O[C@H]6OC(CO)[C@@H](O)C(O)C6O)C(O)C5O)(CO[C@@H]5OC(CO)[C@@H](O[C@H]6OC(CO)[C@@H](O)C(O)C6O)C(O)C5O)CSCC(COC5CCC6(C)C(CCC7C6CCC6(C)C7CCC6[C@H](C)CCCC(C)C)C5)(CO[C@@H]5OC(CO)[C@@H](O[C@H]6OC(CO)[C@@H](O)C(O)C6O)C(O)C5O)CO[C@@H]5OC(CO)[C@@H](O[C@H]6OC(CO)[C@@H](O)C(O)C6O)C(O)C5O)CCC4(C)C3CCC21C (stereo partly shown)
2. CCCCCCCCCCCCCCOCC(CO[C@@H]1OC(CO)[C@@H](O)C(O)C1O)(CO[C@@H]1OC(CO)[C@@H](O)C(O)C1O)CSCC(COCCCCCCCCCCCCCC)(CO[C@@H]1OC(CO)[C@@H](O)C(O)C1O)CO[C@@H]1OC(CO)[C@@H](O)C(O)C1O (stereo partly shown)
3. CCCCCCCCCCCC(CCCC(CCCCCCCCCCC)(CO[C@@H]1OC(CO)[C@@H](O)C(O)C1O)CO[C@@H]1OC(CO)[C@@H](O)C(O)C1O)(CO[C@@H]1OC(CO)[C@@H](O)C(O)C1O)CO[C@@H]1OC(CO)[C@@H](O)C(O)C1O (stereo partly shown)

# output
~0.00014 wt %
~0.0005 wt %
~0.0017 wt %
